The entries below come with measured pEC50 values attached.
# target_desc: FPR2 (Homo sapiens, UniProt P25090)
# Sequence (P25090 1-351): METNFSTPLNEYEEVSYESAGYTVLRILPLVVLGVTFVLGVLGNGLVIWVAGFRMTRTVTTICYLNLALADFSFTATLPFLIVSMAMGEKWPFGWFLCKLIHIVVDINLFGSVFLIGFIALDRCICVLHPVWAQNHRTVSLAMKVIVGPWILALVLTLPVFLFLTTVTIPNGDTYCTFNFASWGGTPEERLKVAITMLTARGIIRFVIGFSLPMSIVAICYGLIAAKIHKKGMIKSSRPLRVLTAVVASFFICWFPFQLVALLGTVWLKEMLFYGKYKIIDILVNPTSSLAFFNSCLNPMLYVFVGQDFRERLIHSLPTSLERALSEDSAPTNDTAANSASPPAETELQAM
# experiment_notes: Change in calcium activity by peptide (Fura-2) in RBL cells overexpressing FPR2
# measurement_parameters: calcium activity (Fura-2), graded per Table 3, read-out: EC50 for [Ca^2+] FPR2
pEC50: −log10 of the molar value. Peptide text beside a SMILES is read from it.

>  <compound>
CCCCCCCC(=O)N[C@@H](CCCNC(=N)N)C(=O)N[C@@H](CCSC)C(=O)N[C@@H](CCCNC(=N)N)C(=O)N[C@@H](Cc1ccc(O)cc1)C(=O)N[C@@H](CCCCN)C(=O)N1CCC[C@H]1C(=O)N[C@H](CCSC)C(N)=O [Peptide 53] (HELM PEPTIDE1{[CCCCCCCC(=O)[*:2]].R.M.R.Y.K.P.[dM].[am]}$$$$V2.0)

>  <test_result>
> 8.00

$$$$

Could you now look at the following compound, please?
Query: Give the measured pEC50 for CSCC[C@@H](NC(=O)[C@@H](NC(=O)[C@H](CCCCN)NC(=O)[C@H](Cc1ccc(O)cc1)NC(=O)[C@H](CCCNC(=N)N)NC(=O)[C@@H](N)Cc1c[nH]c2ccccc12)C(C)C)C(N)=O [Peptide 3] (HELM PEPTIDE1{W.R.Y.K.V.[dM].[am]}$$$$V2.0)
Response: > 8.00

----------
# target_desc: FPR1 (Homo sapiens)
# Sequence (P21462 whole entry, species assumed): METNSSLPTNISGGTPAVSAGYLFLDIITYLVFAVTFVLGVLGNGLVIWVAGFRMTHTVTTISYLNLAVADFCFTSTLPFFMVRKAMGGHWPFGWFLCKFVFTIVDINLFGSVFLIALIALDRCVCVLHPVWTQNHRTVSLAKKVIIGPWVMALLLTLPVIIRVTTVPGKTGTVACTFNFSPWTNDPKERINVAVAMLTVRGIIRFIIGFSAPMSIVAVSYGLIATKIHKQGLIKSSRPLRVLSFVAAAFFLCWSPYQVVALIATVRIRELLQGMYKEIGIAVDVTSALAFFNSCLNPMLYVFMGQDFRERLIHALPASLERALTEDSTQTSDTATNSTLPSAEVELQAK
# experiment_notes: Change in calcium activity by peptide, FPR1 activation effect
# measurement_parameters: calcium activity (Fura-2), graded per Table 3, read-out: EC50 for [Ca^2+] FPR1
pEC50: −log10 of the molar value. Peptide text beside a SMILES is read from it.
The entries below come with measured pEC50 values attached.

Query: Give the measured pEC50 for CCCC(=O)N[C@@H](Cc1c[nH]cn1)C(=O)N[C@@H](CCSC)C(=O)N[C@@H](CCCNC(=N)N)C(=O)N[C@@H](Cc1ccc(O)cc1)C(=O)N[C@@H](Cc1c[nH]c2ccccc12)C(=O)N[C@@H](Cc1ccc(O)cc1)C(=O)N[C@H](CCSC)C(N)=O [Peptide 93] (HELM PEPTIDE1{[CCCC(=O)[*:2]].H.M.R.Y.W.Y.[dM].[am]}$$$$V2.0)
Response: 5.00 to 6.00

Query: Give the measured pEC50 for CSCC[C@@H](NC(=O)[C@H](Cc1ccc(O)cc1)NC(=O)[C@H](Cc1c[nH]c2ccccc12)NC(=O)[C@H](Cc1ccc(O)cc1)NC(=O)[C@H](CCCCN)NC(=O)[C@H](Cc1c[nH]c2ccccc12)NC(=O)[C@H](CCCCN)NC(C)=O)C(N)=O [Peptide 80] (HELM PEPTIDE1{[ac].K.W.K.Y.W.Y.[dM].[am]}$$$$V2.0)
Response: < 5.00

Query: Give the measured pEC50 for CSCC[C@@H](NC(=O)[C@H](Cc1ccc(O)cc1)NC(=O)[C@H](Cc1c[nH]c2ccccc12)NC(=O)[C@H](Cc1ccc(O)cc1)NC(=O)[C@H](CCCNC(=N)N)NC(=O)[C@H](Cc1c[nH]c2ccccc12)NC(=O)[C@H](CCCNC(=N)N)NC(C)=O)C(N)=O [Peptide 78] (HELM PEPTIDE1{[ac].R.W.R.Y.W.Y.[dM].[am]}$$$$V2.0)
Response: < 5.00

These entries and their values trace back to patent US20250361268A1.
